Tested on: DRAK2;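 further: KINOMEscan kinase panel screen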
Construct: gene STK17B
Condition notes: concentration: 1 μM, replicates: in singlicate; n = 1
Threshold rule: %Inh greater than or equal to 1% is Y; below that, N.

{"columns": ["Molecule", "Group"],
 "data": [
  ["O=c1cc(N2CCOCC2)nc2n(Cc3cccc(Cl)c3Cl)c(C3CC3)nn12 [GSK2358994]", "Y"]
]}

Task item: Decide: %Inh of O=c1cc(N2CCOCC2)nc2n(Cc3cccc(C(F)(F)F)c3)ccn12 [GSK2297543] >= 1%?
Reply: N

Task item: Then this molecule: CC(C)Oc1ccc2c(-c3ccnc(Nc4ccc(N5CCN(C)CC5)cc4)n3)cnn2n1 [GW696155]
Reply: Y

Attribution: paper PMC5540273
